Data credit: patent US8632792B2

Test system: professional examiners
PROTOCOL_SUMMARY: Cooling treated towel (direct spraying), organoleptic ranking of cooling action
Type: in vivo
CONDITION_CONTEXT: Group A; air-dried 24 hr; 1% ethanol solution; low sum = strong
Note to self: sum of the ranking numbers (cooling effect on treated hand towel at direct spraying) under 10 means 1 (yes), ties and anything higher get 0 (no).

COMPOUND	CLASS_NAME
C=C(C)[C@@H]1CC[C@@H](C)C[C@H]1OC(=O)O[C@@H]1C[C@H](C)CC[C@H]1C(C)C [l-Menthyl-l-isopulegol carbonate, 1-menthyl-1-isopulegol carbonate]	0 (no)
CC(C)[C@@H]1CC[C@@H](C)C[C@H]1O [l-Menthol, 1-menthol, reference compound]	0 (no)
CC(C)[C@@H]1CC[C@@H](C)C[C@H]1OCCOC(=O)O[C@@H]1C[C@H](C)CC[C@H]1C(C)C [l-Menthyl-l-menthoxy ethyl carbonate, 1-menthyl-1-menthoxy ethyl carbonate]	1 (yes)
C=C(C)[C@@H]1CC[C@@H](C)C[C@H]1OC(=O)O[C@@H]1C[C@H](C)CC[C@H]1C(=C)C [Di-l-isopulegol carbonate, di-1-isopulegol carbonate]	0 (no)
CC(C)[C@@H]1CC[C@@H](C)C[C@H]1OC(=O)O[C@@H]1C[C@H](C)CC[C@H]1C(C)C [Di-l-menthyl carbonate, di-1-menthyl carbonate]	0 (no)
